Cited source: patent US20200339680A1

Can you tell me MFI for the items I'm about to list?
Target: T1, human TMEM106B (human, UniProt Q9NUM4 2-274)
T1 construct: full-length, transiently expressed on HEK293 cells, or natively expressed on HeLa, U251 and A549 cells (the cell is named under assay); also the source of the Pepscan peptides; also called huTMEM106B; huTMEM
Assay: FACS A549 10 ug/ml
Give bare numbers, in MFI.

Before answering, review these 2 worked examples.
1) TM-17 (antibody, V domains shown) VH: QVQLQQSGAELIRPGTSVKVSCKASGYAFTDYLIEWVKQRPGQGLEWIGVINPGSGGTNYNEKFKGKAKLTADKSSSTAYMQLSSLTSEDSAVYFCVRSSYGVYVAYPMDYWGQGTSVTVSS VL: DIQMTQSPSSLSASLGERVSLTCRASQDIGSNLNWLQQEPDGTIKRLIYATSSLDSGVPKRFSGSRSGSDYSLTISSLESEDFVDYYCLQYASSPRTFGGGTKLEIK: 425
2) TM-24 (antibody, V domains shown, mouse IgG (hybridoma)) VH: QVQLKQSGPGQVQPSQSLSITCTVSGFSLSDYGVHWVRQSPGKGLEWLGVIWNNGNTDYNAAFISRLSINKDNSKSQVFFKMTSLQADDTAIYYCVRSLRPLHFDYWGQGTTVTVSS VL: DIVMTQSPSSLTMSVGQKVTMNCKSSQSLLNSNNQQNYLAWYQQKPGQSPKLLVYFASIRESGVPDRFIGSGSGTDFTLTINSVQAEDLADYFCQQHYSTPFTFGSGTKLEIR: 4480

Next up:
Any idea what MFI was measured for TM-30 (antibody, V domains shown, mouse IgG (hybridoma)) VH: QVQLQQSGPELVKPGASVKLSCKASDNTFTNYDVNWVRQRPGQGLEWIGWIYPRDGTTIYNEKFKGRATLTVDTSSSTAYMELHSLTSEDSAVFFCARTLPQAMDYWGQGTSVTVSS VL: DVLMTQSPLSLPVSLGDQVSISCRSSQTIVHRNGNTYLEWYLQKPGQSPKLLIYKVSNRFSGVPDRFSGSGSGTDFTLKISRVEAEDLGVYYCFQGSHLPWTFGGGTKLEIK ?
4040
